Numbers sourced from ChEMBL document CHEMBL4418490.

- assay-summary: Plasma concentration in C215 transfected MC38 cells implanted C57BL/6 mouse assessed as N-(5-bromo-3-hydroxypyrazin-2-yl)-1-(3,4-dichlorophenyl)methanesulfonamide level at 1 mg/kg, iv dosed as cassette formulation and measured at 4 hrs after post dose by LC-MS analysis
- Type: ADME, organism-based
- test-context: in vivo

- smiles-record: "COc1nc(Br)cnc1NS(=O)(=O)Cc1ccc(Cl)c(Cl)c1"
  concentration: "210 nM"

---

- assay-summary: Plasma concentration in C215 transfected MC38 cells implanted C57BL/6 mouse assessed as 2,5-dichloro-N-(6-chloro-4-hydroxypyridin-3-yl)thiophene-3-sulfonamide level at 5 mg/kg, po dosed as cassette formulation and measured at 2 hrs after post dose by LC-MS analysis
- Format: ADME, organism-based
- test-context: in vivo

- smiles-record: "COc1cc(Cl)ncc1NS(=O)(=O)c1cc(Cl)sc1Cl"
  unit: "nM"
  concentration: 690

---

- assay-summary: Plasma concentration in C215 transfected MC38 cells implanted C57BL/6 mouse assessed as N-(5-chloro-3-hydroxypyridin-2-yl)-1-(3,5-dichlorophenyl)methanesulfonamide level at 1 mg/kg, iv dosed as cassette formulation and measured at 0.083 hrs after post dose by LC-MS analysis
- Assay type: ADME, organism-based
- test-context: in vivo

- smiles-record: "COc1cc(Cl)cnc1NS(=O)(=O)Cc1cc(Cl)cc(Cl)c1"
  concentration: "44 nM"

---

- assay-summary: Plasma concentration in C215 transfected MC38 cells implanted C57BL/6 mouse assessed as N-(5-chloro-3-hydroxypyridin-2-yl)-1-(3,5-dichlorophenyl)methanesulfonamide level at 1 mg/kg, iv dosed as cassette formulation and measured at 4 hrs after post dose by LC-MS analysis
- Format: ADME, organism-based
- test-context: in vivo

- smiles-record: "COc1cc(Cl)cnc1NS(=O)(=O)Cc1cc(Cl)cc(Cl)c1"
  concentration, nM: 4

---

- assay-summary: Plasma concentration in C215 transfected MC38 cells implanted C57BL/6 mouse assessed as 2,5-dichloro-N-(6-chloro-4-hydroxypyridin-3-yl)thiophene-3-sulfonamide level at 1 mg/kg, iv dosed as cassette formulation and measured at 4 hrs after post dose by LC-MS analysis
- Format: ADME, organism-based
- test-context: in vivo

- smiles-record: "COc1cc(Cl)ncc1NS(=O)(=O)c1cc(Cl)sc1Cl"
  concentration [nM]: 180

---

Quick reference: concentration at 4 h of the listed items.
- assay-summary: Plasma concentration in C215 transfected MC38 cells implanted C57BL/6 mouse at 5 mg/kg, po dosed as cassette formulation and measured at 4 hrs after post dose by LC-MS analysis
- Assay type: ADME, organism-based
readout-label: concentration at 4 h (µM)

- smiles-record: "COc1cc(Cl)cnc1NS(=O)(=O)Cc1cc(Cl)cc(Cl)c1"
  readout-label: "concentration at 4 h"
  measured-result: 0.85
- smiles-record: "COc1nc(Br)cnc1NS(=O)(=O)Cc1ccc(Cl)c(Cl)c1"
  readout-label: "concentration at 4 h"
  measured-result: 59.4
- smiles-record: "COc1cc(Cl)ncc1NS(=O)(=O)c1cc(Cl)sc1Cl"
  readout-label: "concentration at 4 h"
  measured-result: 47.1

---

- assay-summary: Plasma concentration in C215 transfected MC38 cells implanted C57BL/6 mouse assessed as N-(5-chloro-3-hydroxypyridin-2-yl)-1-(3,5-dichlorophenyl)methanesulfonamide level at 5 mg/kg, po dosed as cassette formulation and measured at 2 hrs after post dose by LC-MS analysis
- Type: ADME, organism-based
- test-context: in vivo
readout-label: concentration (µM)

- smiles-record: "COc1cc(Cl)cnc1NS(=O)(=O)Cc1cc(Cl)cc(Cl)c1"
  readout-label: "concentration"
  measured-result: 0.021

---

- assay-summary: Plasma concentration in C215 transfected MC38 cells implanted C57BL/6 mouse assessed as N-(5-bromo-3-hydroxypyrazin-2-yl)-1-(3,4-dichlorophenyl)methanesulfonamide level at 5 mg/kg, po dosed as cassette formulation and measured at 0.5 hrs after post dose by LC-MS analysis
- Type: ADME, organism-based
- test-context: in vivo

- smiles-record: "COc1nc(Br)cnc1NS(=O)(=O)Cc1ccc(Cl)c(Cl)c1"
  concentration (nM): 570

---

- assay-summary: Plasma concentration in C215 transfected MC38 cells implanted C57BL/6 mouse assessed as 2,5-dichloro-N-(6-chloro-4-hydroxypyridin-3-yl)thiophene-3-sulfonamide level at 1 mg/kg, iv dosed as cassette formulation and measured at 2 hrs after post dose by LC-MS analysis
- Assay type: ADME, organism-based
- test-context: in vivo

- smiles-record: "COc1cc(Cl)ncc1NS(=O)(=O)c1cc(Cl)sc1Cl"
  concentration: "210 nM"

---

- assay-summary: Plasma concentration in C215 transfected MC38 cells implanted C57BL/6 mouse assessed as 2,5-dichloro-N-(6-chloro-4-hydroxypyridin-3-yl)thiophene-3-sulfonamide level at 5 mg/kg, po dosed as cassette formulation and measured at 7 hrs after post dose by LC-MS analysis
- Type: ADME, organism-based
- test-context: in vivo
readout-label: concentration (nM)

- smiles-record: "COc1cc(Cl)ncc1NS(=O)(=O)c1cc(Cl)sc1Cl"
  measured-result: 780

---

- assay-summary: Plasma concentration in C215 transfected MC38 cells implanted C57BL/6 mouse assessed as N-(5-chloro-3-hydroxypyridin-2-yl)-1-(3,5-dichlorophenyl)methanesulfonamide level at 1 mg/kg, iv dosed as cassette formulation and measured at 2 hrs after post dose by LC-MS analysis
- Format: ADME, organism-based
- test-context: in vivo

- smiles-record: "COc1cc(Cl)cnc1NS(=O)(=O)Cc1cc(Cl)cc(Cl)c1"
  unit: "nM"
  concentration: 6

---

- assay-summary: Plasma concentration in C215 transfected MC38 cells implanted C57BL/6 mouse assessed as 2,5-dichloro-N-(6-chloro-4-hydroxypyridin-3-yl)thiophene-3-sulfonamide level at 1 mg/kg, iv dosed as cassette formulation and measured at 1 hr after post dose by LC-MS analysis
- Format: ADME, organism-based
- test-context: in vivo

- smiles-record: "COc1cc(Cl)ncc1NS(=O)(=O)c1cc(Cl)sc1Cl"
  concentration, nM: 190

---

Quick reference: concentration at 0.5 h of the listed items.
- assay-summary: Plasma concentration in C215 transfected MC38 cells implanted C57BL/6 mouse at 1 mg/kg, iv dosed as cassette formulation and measured at 0.5 hrs after post dose by LC-MS analysis
- Type: ADME, organism-based
readout-label: concentration at 0.5 h

- smiles-record: "COc1nc(Br)cnc1NS(=O)(=O)Cc1ccc(Cl)c(Cl)c1"
  measured-result: "16.8 µM"
- smiles-record: "COc1cc(Cl)cnc1NS(=O)(=O)Cc1cc(Cl)cc(Cl)c1"
  measured-result: "0.55 µM"
- smiles-record: "COc1cc(Cl)ncc1NS(=O)(=O)c1cc(Cl)sc1Cl"
  measured-result: "19.3 µM"

---

- assay-summary: Plasma concentration in C215 transfected MC38 cells implanted C57BL/6 mouse at 1 mg/kg, iv dosed as cassette formulation and measured at 0.083 hrs after post dose by LC-MS analysis
- Assay type: ADME, organism-based

- smiles-record: "COc1nc(Br)cnc1NS(=O)(=O)Cc1ccc(Cl)c(Cl)c1"
  concentration at 0.083 h: "25.2 µM"
- smiles-record: "COc1cc(Cl)cnc1NS(=O)(=O)Cc1cc(Cl)cc(Cl)c1"
  concentration at 0.083 h: "6.3 µM"
- smiles-record: "COc1cc(Cl)ncc1NS(=O)(=O)c1cc(Cl)sc1Cl"
  concentration at 0.083 h: "32.2 µM"

---

- assay-summary: Plasma concentration in C215 transfected MC38 cells implanted C57BL/6 mouse assessed as N-(5-chloro-3-hydroxypyridin-2-yl)-1-(3,5-dichlorophenyl)methanesulfonamide level at 5 mg/kg, po dosed as cassette formulation and measured at 7 hrs after post dose by LC-MS analysis
- Format: ADME, organism-based
- test-context: in vivo
readout-label: concentration (nM)

- smiles-record: "COc1cc(Cl)cnc1NS(=O)(=O)Cc1cc(Cl)cc(Cl)c1"
  readout-label: "concentration"
  unit: "nM"
  measured-result: 19

---

- assay-summary: Plasma concentration in C215 transfected MC38 cells implanted C57BL/6 mouse assessed as 2,5-dichloro-N-(6-chloro-4-hydroxypyridin-3-yl)thiophene-3-sulfonamide level at 1 mg/kg, iv dosed as cassette formulation and measured at 7 hrs after post dose by LC-MS analysis
- Assay type: ADME, organism-based
- test-context: in vivo
readout-label: concentration (nM)

- smiles-record: "COc1cc(Cl)ncc1NS(=O)(=O)c1cc(Cl)sc1Cl"
  readout-label: "concentration"
  unit: "nM"
  measured-result: 130

---

- assay-summary: Plasma concentration in C215 transfected MC38 cells implanted C57BL/6 mouse assessed as N-(5-chloro-3-hydroxypyridin-2-yl)-1-(3,5-dichlorophenyl)methanesulfonamide level at 1 mg/kg, iv dosed as cassette formulation and measured at 0.5 hrs after post dose by LC-MS analysis
- Assay type: ADME, organism-based
- test-context: in vivo

- smiles-record: "COc1cc(Cl)cnc1NS(=O)(=O)Cc1cc(Cl)cc(Cl)c1"
  concentration, nM: 5
